- experimental.details: anti-His antibody binders, primary screen, artefact control for SMM control protein annotation, biochemical, small-molecule microarray, 635 nm fluorescence (AID 1128);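 note: score merges feature fluorescence with signal-to-noise for each printed compound spot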
- settings: anti-His Alexa647 antibody binding, higher = more signal
Returns the class for an entry based on its composite z-score. Class ranges: interval 1 = under 0.5, interval 2 = from 0.5 up to 1, interval 3 = 1 and over

Use the examples below as a reference point.
molecule	group
Cc1ccc(S[C@]2(C(=O)NC(C)C)CC(=O)N(Cc3ccccc3Cl)[C@@H]2c2ccc(CO)cc2)cc1	interval 2
CO[C@H]1O[C@H](CO)[C@@H](OC(=O)c2ccc(Br)cc2)[C@@H]2OC(=O)[C@H](Cc3ccccc3)C/C=C/C[C@@H](Cc3ccccc3)C(=O)O[C@@H]12	interval 1
[N-]=[N+]=Nc1ccccc1C[C@@]1(C(=O)O)N=C(c2ccc(OCCCO)cc2)O[C@@H]1c1ccccc1N=[N+]=[N-]	interval 3
COCCOC(=O)N1C(=O)[C@@]2(c3ccccc31)[C@H](c1ccccc1OCCO)N1[C@H](c3ccccc3)[C@H](c3ccccc3)OC(=O)[C@H]1[C@@H]2C(=O)N1CCCCCCC1	interval 2
COCC1=C2[C@@H](CCc3ccccc3)OB(O)C[C@@H]2[C@@H]2C(=O)N(C)C(=O)[C@@H]2C1	interval 1

Please turn your attention to the following entry.
Ask: Class for C[C@]1(C(=O)O)c2ccccc2C(=O)N(Cc2ccc(OC(F)(F)F)cc2)[C@H]1c1ccc(CO)cc1 ?
Reply: interval 3

Measured values drawn from PubChem BioAssay for this set.
